# Tested on: human PKK mRNA
# Test name: Antisense inhibition of human PKK mRNA in HepaRG cells, 1,000 nM, MOE/deoxy/cEt oligonucleotides (Example 3)
# Type: cell-based
# Condition description: Table 20; HepaRG cells, electroporation with 1,000 nM antisense oligonucleotide, approximately 24 hours; PKK mRNA by RT-PCR (RTS3454), relative to untreated control cells
Strand notation (5' to 3'): a small letter for the sugar, then the base; units joined by * are phosphorothioate-linked, units joined directly phosphodiester-linked; [ ] holds rarer units or linkages, { } end groups; capitals alone tell only the bases. e = 2'-O-(2-methoxyethyl) (MOE); k = constrained ethyl (cEt); [5mC] = 5-methylcytosine; d = 2'-deoxy (DNA)
# binarize % inhibition: threshold 70% inclusive, high side YES, low side NO

*Q* Reported % inhibition reaches at least 70% for 547918 (eA*eA*k[5mC]*d[5mC]*d[5mC]*dT*dG*dG*d[5mC]*dA*dA*d[5mC]*dA*kT*k[5mC]*e[5mC]; antisense) [compound 547918] ?
*A* NO

*Q* Reported % inhibition reaches at least 70% for 547893 (eG*e[5mC]*kA*dA*dT*dT*dG*dT*dT*d[5mC]*d[5mC]*dG*dG*kT*kA*e[5mC]; antisense) [compound 547893] ?
*A* YES

*Q* Reported % inhibition reaches at least 70% for 547911 (eT*eG*kG*d[5mC]*dA*dA*d[5mC]*d[5mC]*dA*dA*dT*dT*dT*k[5mC]*kT*eG; antisense) [compound 547911] ?
*A* NO

*Q* Reported % inhibition reaches at least 70% for 547891 (eA*eT*kT*dG*dT*dT*d[5mC]*d[5mC]*dG*dG*dT*dA*d[5mC]*kT*k[5mC]*eT; antisense) [compound 547891] ?
*A* YES

*Q* Reported % inhibition reaches at least 70% for 547873 (antisense e[5mC]*eT*kG*d[5mC]*dT*dA*dA*d[5mC]*d[5mC]*dT*dT*dA*dG*kA*k[5mC]*eA) [compound 547873] ?
*A* YES

*Q* Reported % inhibition reaches at least 70% for 547844 (antisense eG*e[5mC]*kA*d[5mC]*dT*dT*dA*dT*dT*dT*dG*dA*dT*kG*kA*e[5mC]) [compound 547844] ?
*A* NO

*Q* Reported % inhibition reaches at least 70% for 547872 (antisense eT*eG*k[5mC]*dT*dA*dA*d[5mC]*d[5mC]*dT*dT*dA*dG*dA*k[5mC]*kA*e[5mC]) [compound 547872] ?
*A* YES

*Q* Reported % inhibition reaches at least 70% for 547867 (antisense e[5mC]*e[5mC]*kT*dT*dA*dG*dA*d[5mC]*dA*d[5mC]*dA*dT*dT*kA*kA*eA) [compound 547867] ?
*A* NO

*Q* Reported % inhibition reaches at least 70% for 547908 (e[5mC]*eA*kA*dT*dT*dT*d[5mC]*dT*dG*dA*dA*dA*dG*kG*kG*e[5mC]; antisense) [compound 547908] ?
*A* YES

*Q* Reported % inhibition reaches at least 70% for 547906 (eT*eT*kA*d[5mC]*dT*d[5mC]*dA*dG*d[5mC]*dA*d[5mC]*d[5mC]*dT*kT*kT*eA; antisense) [compound 547906] ?
*A* NO

*Q* Reported % inhibition reaches at least 70% for 547854 (antisense eA*eT*k[5mC]*dA*dA*d[5mC]*dT*d[5mC]*d[5mC]*dT*dT*dT*dA*kT*kA*eA) [compound 547854] ?
*A* NO
